molecular target: Human HER3, endogenous, on human cancer cell lines (human, UniProt P21860 20-1342); experiment: cell-based or functional assay

BINDER: MOR10703 (antibody, human IgG1, kappa, V domains shown, tested as IgG) VH: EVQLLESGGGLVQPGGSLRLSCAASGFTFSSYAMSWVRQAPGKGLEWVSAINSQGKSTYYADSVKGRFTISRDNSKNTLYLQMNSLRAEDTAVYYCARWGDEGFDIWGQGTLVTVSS VL: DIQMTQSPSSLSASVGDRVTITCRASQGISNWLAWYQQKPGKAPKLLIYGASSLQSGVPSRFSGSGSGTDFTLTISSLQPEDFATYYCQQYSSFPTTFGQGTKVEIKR
SK-Br-3 pAkt (S473) IC50 [pM]: 70
